- PROCEDURE TEXT: Pharmacokinetic study of single subcutaneous injection of pharmaceutical composition containing FS-01 in healthy volunteers
- Type: in vivo, human
- RUN CONDITIONS: human, plasma, sc; healthy volunteers, single subcutaneous injection
MEASUREMENT KIND: half-life (h)
Give your result in h as a bare value.

Query :: Return reported half-life; argument: Ac-SWETWEREIENYTRQIYRILEESQEQQDRNERDLLE-NH2 [FS-01]
Result :: 20

---

- PROCEDURE TEXT: Pharmacokinetic study of single subcutaneous or intravenous injection of FS-01 in rhesus monkey
- Format: in vivo
- RUN CONDITIONS: plasma, 1.2 mg/kg, 24 h, read-out: C24 (plasma concentration at 24 h)
- Description: Detailed experiment method as follows: three rhesus monkeys, crossover design, with a washout period of more than two weeks. […] Drug concentration at different time point in blood sample was quantitatively analyzed by LC\MS\MS, utilizing iodine labeled FS-01 as internal standard, C18 column, aqueous solution containing 0.1% TFA and acetonitrile as mobile phase. […]
MEASUREMENT KIND: level at 24 h

Query :: Return reported level at 24 h; argument: Ac-SWETWEREIENYTRQIYRILEESQEQQDRNERDLLE-NH2 [FS-01]
Result :: > 9.8 ng/mL

---

- PROCEDURE TEXT: Pharmacokinetic study of single subcutaneous or intravenous injection of FS-01 in rhesus monkey
- Format: in vivo
- RUN CONDITIONS: plasma, 1.2 mg/kg, read-out: Tmax
MEASUREMENT KIND: Tmax

Query :: Return reported Tmax; argument: Ac-SWETWEREIENYTRQIYRILEESQEQQDRNERDLLE-NH2 [FS-01]
Result :: 0.25 to 2 h

---

- PROCEDURE TEXT: Pharmacokinetic study of single subcutaneous or intravenous injection of FS-01 in rhesus monkey
- Type: in vivo
- RUN CONDITIONS: plasma, 1.2 mg/kg, 24 h, read-out: C24 (plasma concentration at 24 h)
MEASUREMENT KIND: level at time molar at 24 h

Query :: Return reported level at time molar at 24 h; argument: Ac-SWETWEREIENYTRQIYRILEESQEQQDRNERDLLE-NH2 [FS-01]
Result :: > 2.07 nM

---

- PROCEDURE TEXT: Half-life of FS-01 in HIV patient
- RUN CONDITIONS: human, in vivo, subcutaneous, 20 mg
MEASUREMENT KIND: half-life (h)
Give your result in h as a bare value.

Query :: Return reported half-life; argument: Ac-SWETWEREIENYTRQIYRILEESQEQQDRNERDLLE-NH2 [FS-01]
Result :: 39

---

- PROCEDURE TEXT: Pharmacokinetic study of single subcutaneous or intravenous injection of FS-01 in rhesus monkey
- Assay type: in vivo
- RUN CONDITIONS: plasma, 1.2 mg/kg, subcutaneous or intravenous injection
MEASUREMENT KIND: half-life (h)
Give your result in h as a bare value.

Query :: Return reported half-life; argument: Ac-SWETWEREIENYTRQIYRILEESQEQQDRNERDLLE-NH2 [FS-01]
Result :: 8.13

---

- PROCEDURE TEXT: Pharmacokinetic study of single subcutaneous or intravenous injection of FS-01 in rhesus monkey
- Assay type: in vivo
- RUN CONDITIONS: plasma, 1.2 mg/kg, subcutaneous or intravenous injection, read-out: bioavailability (BA)
MEASUREMENT KIND: bioavailability (%)
Give your result in % as a bare value.

Query :: Return reported bioavailability; argument: Ac-SWETWEREIENYTRQIYRILEESQEQQDRNERDLLE-NH2 [FS-01]
Result :: 50
